// data source = patent US20210079080A1

Target: T1, VEGF-121-His (inhouse production) (human, UniProt P15692 207-395)
T1 construct: His-tagged human VEGF-A121 used in the ELISAs and (captured by an anti-His antibody) in SPR; also called hVEGF-A121; his VEGF; not shown: His tag
T1 sequence: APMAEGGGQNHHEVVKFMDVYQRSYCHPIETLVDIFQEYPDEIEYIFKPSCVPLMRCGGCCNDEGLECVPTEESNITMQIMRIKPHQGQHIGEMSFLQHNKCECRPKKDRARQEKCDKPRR
Assay: SPR (Biacore), hVEGF-A121 captured by anti-His antibody, Fab injected, 37° C
Description: The surface was regenerated by injecting 10 mM Glycine pH 1.5 for 60s. […] Rate constants were calculated using the Langmuir 1:1 binding model within the Biacore® Evaluation software. The affinity of the antibodies was determined by SPR using the same methods as described in Example 2. All Fab fragments as listed in table 1 and table 2 were tested.
pKd: −log10 of the molar value.
parameter measured: pKd

{"columns": ["binder", "number"],
 "data": [
  ["VEGF-0114 Fab fragment (Fab, V domains shown, Fab with rabbit derived CLkappa and CH1; also called VEGR-0114 Fab) VH: EVQLVESGGGLVQPGGSLRLSCAASGFTFTNYAMTWVRQAPGKGLEWVSSIGSGGFYTYYADSVKGRFTISRDNSKNTLYLQMNSLRAEDTAVYYCAKGDNLFDSWGPGTLVTVSS VL: DIQMTQSPASLSASVGDRVTITCRASQSIYSSLNWYQQKPGKAPKLLIYASTLQSGVPSRFSGSASGTDFTLTISSLQPEDVATYYCQQYQNFPRTFGQGTKLEIKR", 10.25]
]}
